Biological target: AMPK beta 1 (Homo sapiens, UniProt Q13131+Q9Y478)
Construct: in-cell-ELISA for phospho-ACC (Acetyl-CoA carboxylase 1) in HepG2 cells (liver); endogenous in cells; host or cells: HepG2 (assignment to the beta 1 column inferred)
Sequence (Q9Y478 2-270 limits assumed): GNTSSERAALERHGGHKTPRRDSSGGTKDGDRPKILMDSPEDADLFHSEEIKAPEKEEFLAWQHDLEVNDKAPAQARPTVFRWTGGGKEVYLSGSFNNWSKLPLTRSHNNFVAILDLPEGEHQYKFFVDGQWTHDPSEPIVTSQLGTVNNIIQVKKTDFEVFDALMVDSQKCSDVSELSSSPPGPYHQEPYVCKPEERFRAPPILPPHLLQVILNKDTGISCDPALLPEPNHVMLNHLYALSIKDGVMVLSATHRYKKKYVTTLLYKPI
Sequence (Q13131 whole entry): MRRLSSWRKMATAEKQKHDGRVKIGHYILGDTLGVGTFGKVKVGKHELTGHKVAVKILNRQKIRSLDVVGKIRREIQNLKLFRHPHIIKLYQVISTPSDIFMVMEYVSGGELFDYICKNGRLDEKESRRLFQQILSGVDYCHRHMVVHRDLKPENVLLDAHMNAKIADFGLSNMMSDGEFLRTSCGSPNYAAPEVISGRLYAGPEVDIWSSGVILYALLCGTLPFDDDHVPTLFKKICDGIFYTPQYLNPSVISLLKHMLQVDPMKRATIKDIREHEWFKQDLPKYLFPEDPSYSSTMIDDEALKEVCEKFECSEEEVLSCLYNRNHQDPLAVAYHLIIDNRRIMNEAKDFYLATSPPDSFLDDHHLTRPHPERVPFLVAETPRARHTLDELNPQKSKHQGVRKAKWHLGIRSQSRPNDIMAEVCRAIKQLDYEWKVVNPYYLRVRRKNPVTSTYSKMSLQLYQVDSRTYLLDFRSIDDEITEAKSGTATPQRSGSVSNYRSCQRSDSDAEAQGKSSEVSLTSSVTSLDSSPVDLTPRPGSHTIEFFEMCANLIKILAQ
Sequence (P54619 whole entry partner): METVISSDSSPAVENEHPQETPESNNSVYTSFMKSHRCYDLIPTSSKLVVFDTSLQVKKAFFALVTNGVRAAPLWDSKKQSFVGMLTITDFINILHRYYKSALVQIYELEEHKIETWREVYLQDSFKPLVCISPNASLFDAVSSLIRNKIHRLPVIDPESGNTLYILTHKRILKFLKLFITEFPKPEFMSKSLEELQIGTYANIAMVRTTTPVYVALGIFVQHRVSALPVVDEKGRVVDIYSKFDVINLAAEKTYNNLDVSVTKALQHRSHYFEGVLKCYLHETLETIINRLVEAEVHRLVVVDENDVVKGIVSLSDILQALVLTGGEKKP
Assay: in-cell-ELISA for phospho-ACC: activation of AMPK, beta 1 (HepG2 cells / C2C12 myotubes)
Format: cell-based
Details: 2 h, 1 μM, percentage activation over vehicle control, read-out: Percentage activation of beta 1 at given concentration
Protocol: Activation of AMPK by various compounds were measured using in-cell-ELISA for phospho-ACC (Acetyl-CoA carboxylase 1) in HepG2 cells (liver) and fully differentiated myotubes (C2C12 cells) grown in 96 well plate. Cells were treated with 1 μM, 3 μM or 10 μM of the molecule (Example) for 2 h in serum free DMEM media. […] Absorbance values taken at 450 nm were normalized with total DNA (Hoechest stain). Results were expressed as percentage activation over vehicle control. […]
attribute measured: activation at 1 µM

Below: 2 compounds and their reported activation at 1 µM.
CC(C)(C(=O)O)c1ccc(C2CC23C(=O)Nc2cc(F)c(-c4ccc(-c5ccc(-n6cccn6)cc5)cc4)cc23)cc1 (stereo not drawn) [Example 158] : 78%
Cc1ccc(C2CC23C(=O)Nc2cc(Cl)c(-c4ccc(-c5ccc(-n6cccn6)cc5)cc4)cc23)cc1C(=O)O (stereo not drawn) [Example 114] : 79%

We next turn to a different compound, shown below.
Query: What measured activation at 1 µM goes with Cc1ccc(C2CC23C(=O)Nc2cc(Cl)c(-c4ccc(-c5ccc(-n6cncn6)cc5)cc4)nc23)cc1C(=O)O (stereo not drawn) [Example 125] ?
Response: 81%

---

# key: entry, value: activation at 1 µM
Target: AMPK beta 2 (Mus musculus, UniProt Q6PAM0+Q8BRK8)
Construct: fully differentiated myotubes (C2C12 cells) grown in 96 well plate; endogenous in cells; host or cells: C2C12 myotubes (assignment to the beta 2 column inferred)
Sequence (Q6PAM0 whole entry): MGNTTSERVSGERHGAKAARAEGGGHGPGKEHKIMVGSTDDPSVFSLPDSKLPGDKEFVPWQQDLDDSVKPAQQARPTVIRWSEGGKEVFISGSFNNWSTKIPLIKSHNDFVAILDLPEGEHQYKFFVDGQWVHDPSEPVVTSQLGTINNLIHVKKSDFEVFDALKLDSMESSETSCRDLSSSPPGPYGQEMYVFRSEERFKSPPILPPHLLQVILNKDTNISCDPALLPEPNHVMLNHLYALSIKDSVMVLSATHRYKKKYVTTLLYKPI
Sequence (Q8BRK8 whole entry): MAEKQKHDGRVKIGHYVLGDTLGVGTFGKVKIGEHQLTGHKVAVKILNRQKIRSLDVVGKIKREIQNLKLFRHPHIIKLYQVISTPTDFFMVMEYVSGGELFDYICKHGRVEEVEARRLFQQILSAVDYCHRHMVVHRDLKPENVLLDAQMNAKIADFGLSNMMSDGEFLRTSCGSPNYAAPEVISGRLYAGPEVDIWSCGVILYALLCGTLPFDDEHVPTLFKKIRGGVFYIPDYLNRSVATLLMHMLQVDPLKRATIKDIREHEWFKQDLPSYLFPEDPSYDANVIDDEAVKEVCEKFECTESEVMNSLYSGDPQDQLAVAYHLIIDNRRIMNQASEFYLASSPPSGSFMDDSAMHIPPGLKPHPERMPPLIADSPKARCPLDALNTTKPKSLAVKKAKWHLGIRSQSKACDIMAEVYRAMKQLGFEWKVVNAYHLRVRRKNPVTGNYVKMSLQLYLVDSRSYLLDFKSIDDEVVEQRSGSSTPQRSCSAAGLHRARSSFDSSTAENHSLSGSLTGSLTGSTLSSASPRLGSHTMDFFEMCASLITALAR
Sequence (O54950 whole entry partner): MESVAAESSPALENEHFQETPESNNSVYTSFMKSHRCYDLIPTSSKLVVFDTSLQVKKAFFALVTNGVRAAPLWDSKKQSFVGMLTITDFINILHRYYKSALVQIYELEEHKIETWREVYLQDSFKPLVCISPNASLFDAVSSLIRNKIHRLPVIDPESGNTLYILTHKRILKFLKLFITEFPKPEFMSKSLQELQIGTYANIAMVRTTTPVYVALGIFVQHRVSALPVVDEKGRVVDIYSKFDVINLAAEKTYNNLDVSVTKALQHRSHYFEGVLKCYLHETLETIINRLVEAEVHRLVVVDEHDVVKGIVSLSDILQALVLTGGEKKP
Assay: in-cell-ELISA for phospho-ACC: activation of AMPK, beta 2 (HepG2 cells / C2C12 myotubes)
Format: cell-based
Conditions: 2 h, 1 μM, percentage activation over vehicle control, read-out: Percentage activation of beta 2 at given concentration
Note: unit % is implicit; provide only the numeric part.

Below: 2 compounds and their reported activation at 1 µM.
Cc1ccc(C2CC23C(=O)Nc2cc(Cl)c(-c4ccc(-c5ccccc5O)cc4)cc23)cc1CO (stereo not drawn) : 88
CC(C)(C(=O)O)c1ccc(C2CC23C(=O)Nc2cc(F)c(-c4ccc(-c5ccc(-n6cncn6)cc5)cc4)cc23)cc1 (stereo not drawn) : 79

We next turn to a different compound, shown below.
Query: What measured activation at 1 µM goes with Cc1ccc(C2CC23C(=O)Nc2cc(Cl)c(-c4ccc(-c5ccc(-n6ccnc6C)cc5)cc4)cc23)cc1C(=O)O (stereo not drawn) ?
Response: 81
